These data points were gathered from patent US20170355757A1.

Biological target: African green monkey C5 (African green monkey)
Assay: cell-based or functional assay
Label label 1 when AGM Serum AP IC50, hemolysis assay, 5% serum is at or above 200 nM; anything below gets label 0.

{"BINDER": "H4H12163P (antibody, human IgG4, V domains shown, H4H: human IgG4 Fc with S108P hinge mutation) VH: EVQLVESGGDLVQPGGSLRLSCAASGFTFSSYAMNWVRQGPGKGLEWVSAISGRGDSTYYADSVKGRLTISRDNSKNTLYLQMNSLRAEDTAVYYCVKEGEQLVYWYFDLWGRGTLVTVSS VL: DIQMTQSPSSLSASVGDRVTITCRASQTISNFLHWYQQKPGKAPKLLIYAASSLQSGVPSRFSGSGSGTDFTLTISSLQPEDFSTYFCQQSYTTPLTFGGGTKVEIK", "QUALITATIVE_LABEL": "label 1"}
{"BINDER": "H4H12166P (antibody, V domains shown) VH: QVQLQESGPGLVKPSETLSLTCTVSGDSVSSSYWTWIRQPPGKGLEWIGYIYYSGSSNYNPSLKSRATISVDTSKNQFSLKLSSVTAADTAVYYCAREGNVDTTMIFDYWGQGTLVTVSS VL: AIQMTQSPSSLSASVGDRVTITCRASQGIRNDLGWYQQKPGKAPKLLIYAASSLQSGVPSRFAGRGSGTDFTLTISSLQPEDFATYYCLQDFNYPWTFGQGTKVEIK", "QUALITATIVE_LABEL": "label 1"}
{"BINDER": "H4H11686N (antibody, human IgG4, V domains shown, tested with H4H prefix (human IgG4 Fc with S108P hinge mutation); also called H2M11686N) VH: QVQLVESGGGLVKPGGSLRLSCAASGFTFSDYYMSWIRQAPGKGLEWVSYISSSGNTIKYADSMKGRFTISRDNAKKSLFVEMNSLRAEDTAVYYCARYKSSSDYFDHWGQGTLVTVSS VL: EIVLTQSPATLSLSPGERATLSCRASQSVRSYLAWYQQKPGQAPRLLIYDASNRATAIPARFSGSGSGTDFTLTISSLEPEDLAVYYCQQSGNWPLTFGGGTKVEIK", "QUALITATIVE_LABEL": "label 0"}
{"BINDER": "H4H12168P (antibody, human IgG4, V domains shown, H4H: human IgG4 Fc with S108P hinge mutation) VH: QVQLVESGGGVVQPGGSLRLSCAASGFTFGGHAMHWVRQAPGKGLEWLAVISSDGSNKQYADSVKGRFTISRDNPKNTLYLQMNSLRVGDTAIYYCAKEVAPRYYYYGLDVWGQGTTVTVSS VL: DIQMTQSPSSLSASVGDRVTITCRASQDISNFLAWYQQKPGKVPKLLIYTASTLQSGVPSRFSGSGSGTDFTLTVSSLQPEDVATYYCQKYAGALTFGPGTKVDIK", "QUALITATIVE_LABEL": "label 0"}
{"BINDER": "H4H12167P (antibody, human IgG4, V domains shown, H4H: human IgG4 Fc with S108P hinge mutation) VH: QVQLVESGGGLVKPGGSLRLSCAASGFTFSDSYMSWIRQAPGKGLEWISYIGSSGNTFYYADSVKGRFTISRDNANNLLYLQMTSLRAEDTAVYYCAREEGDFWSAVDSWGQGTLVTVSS VL: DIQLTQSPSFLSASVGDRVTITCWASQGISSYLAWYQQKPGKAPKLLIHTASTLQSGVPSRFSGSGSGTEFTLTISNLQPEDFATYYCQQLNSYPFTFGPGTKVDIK", "QUALITATIVE_LABEL": "label 0"}
